Value source: patent US10544143B2

We begin with a simple list: items and their reported IC50.
measurement target: human TLR8 (Homo sapiens (Human))
experiment summary: TLR8 inhibition reporter assay (HEK-Blue SEAP)
measurement conditions: read-out: TLR8 IC50; HEK-Blue human TLR8 cells, R848 15.9 μM
# unit: nM | format: bare number

Cc1c(-c2[nH]c3ccc(C4CC5(C4)CN(C4CCOCC4)C5)nc3c2C(C)C)cn2ncnc2c1C; 1.2
Cc1c(-c2[nH]c3ccc(N4C[C@@H](C)N(C(=O)CCN5CCOCC5(C)C)C[C@@H]4C)nc3c2C(C)C)cn2ncnc2c1C; 1.9
Cc1c(-c2[nH]c3ccc(C4CCC(N5CCOCC5)CC4)nc3c2C(C)C)cn2ncnc2c1C (stereo not shown); 0.96
Cc1c(-c2[nH]c3ccc(N4CCN(C(=O)C5CN(C)C5)C[C@@H]4C)nc3c2C(C)C)cn2ncnc2c1C; 12

Lab note: measured IC50 of `Cc1c(-c2[nH]c3ccc(N4C[C@@H](C)N(C(=O)CCN5CC6(COC6)C5)C[C@@H]4C)nc3c2C(C)C)cn2ncnc2c1C` was 0.26

Entry `Cc1c(-c2[nH]c3ccc(N4C[C@H]5C[C@@H](C4)N5)nc3c2C(C)C)cn2ncnc2c1C` , IC50 reported as 1.1

# IC50 of `Cc1c(-c2[nH]c3ccc(N4CCN(C(=O)CN5CC6(COC6)C5)C[C@@H]4C)nc3c2C(C)C)cn2ncnc2c1C` = 0.15

###

measurement target: human TLR9 (Homo sapiens (Human))
experiment summary: TLR9 inhibition reporter assay (HEK-Blue SEAP)
measurement conditions: read-out: TLR9 IC50; HEK-Blue human TLR9 cells, ODN2006 5 nM
Readings of IC50 for the listed molecules
Kindly answer with a numeric value in µM, unit omitted.

Cc1c(-c2[nH]c3ccc(N4C[C@H](C)N(C(=O)CN(C)C)C[C@H]4C)nc3c2C(C)C)cn2ncnc2c1C; 7.87
Cc1c(-c2[nH]c3ccc(N4CCN(C5CCOCC5)C[C@@H]4C)nc3c2C(C)C)cn2ncnc2c1C; 9.4

So, `Cc1c(-c2[nH]c3ccc(N4CC(NC(C)C)C4)nc3c2C(C)C)cn2ncnc2c1C` ? Its IC50 was 10.5

So, `Cc1c(-c2[nH]c3ccc(N4C[C@@H](C)N(C(=O)CCN5CC6(CCO6)C5)C[C@@H]4C)nc3c2C(C)C)cn2ncnc2c1C` ? Its IC50 was 11.2

Please fill in: IC50 reported for `Cc1c(-c2[nH]c3ccc(N4CCN(C(=O)C5(N(C)C)CC5)CC4)nc3c2C(C)C)cn2ncnc2c1C` = 32.3

Reported IC50 for `Cc1c(-c2[nH]c3ccc(N4CCN(C(=O)CNC(C)C)C[C@H]4C)nc3c2C(C)C)cn2ncnc2c1C` was 7.82

# IC50 (molecule: `CNCCC(=O)N1C[C@H](C)N(c2ccc3[nH]c(-c4cn5ncnc5c(C)c4C)c(C(C)C)c3n2)C[C@H]1C` ) is 26.6

IC50 recorded for this molecule, `Cc1c(-c2[nH]c3ccc(N4CCNCC45CC5)nc3c2C(C)C)cn2ncnc2c1C` , is 32.8

###

measurement target: human TLR8 (Homo sapiens (Human), UniProt Q9NR97)
Sequence (Q9NR97 27-1041): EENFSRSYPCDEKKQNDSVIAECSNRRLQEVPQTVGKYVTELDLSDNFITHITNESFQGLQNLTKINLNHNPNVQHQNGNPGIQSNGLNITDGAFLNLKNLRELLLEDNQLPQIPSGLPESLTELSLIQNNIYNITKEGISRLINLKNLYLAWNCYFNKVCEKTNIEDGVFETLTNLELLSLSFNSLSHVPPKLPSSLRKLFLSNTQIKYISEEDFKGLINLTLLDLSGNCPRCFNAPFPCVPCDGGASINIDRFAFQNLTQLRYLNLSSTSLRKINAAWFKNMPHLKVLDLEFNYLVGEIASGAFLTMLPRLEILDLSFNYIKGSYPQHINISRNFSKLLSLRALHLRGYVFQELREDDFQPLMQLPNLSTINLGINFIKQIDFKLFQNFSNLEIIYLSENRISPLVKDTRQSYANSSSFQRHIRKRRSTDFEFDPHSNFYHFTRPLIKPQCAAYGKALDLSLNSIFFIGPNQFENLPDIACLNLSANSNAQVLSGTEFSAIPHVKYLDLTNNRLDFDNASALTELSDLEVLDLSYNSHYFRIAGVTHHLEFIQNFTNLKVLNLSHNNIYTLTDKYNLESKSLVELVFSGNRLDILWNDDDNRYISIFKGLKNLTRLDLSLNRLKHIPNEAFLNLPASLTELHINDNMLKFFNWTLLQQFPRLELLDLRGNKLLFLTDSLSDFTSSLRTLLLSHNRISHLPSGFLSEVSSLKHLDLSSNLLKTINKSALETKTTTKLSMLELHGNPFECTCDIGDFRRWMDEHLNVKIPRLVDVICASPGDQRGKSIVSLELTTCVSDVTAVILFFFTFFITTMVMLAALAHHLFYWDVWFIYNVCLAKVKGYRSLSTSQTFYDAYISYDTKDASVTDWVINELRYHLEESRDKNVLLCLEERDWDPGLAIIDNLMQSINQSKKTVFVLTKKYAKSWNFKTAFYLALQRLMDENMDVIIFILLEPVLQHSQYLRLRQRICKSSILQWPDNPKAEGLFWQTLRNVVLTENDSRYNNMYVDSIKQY
experiment summary: TLR8 inhibition reporter assay (HEK-Blue SEAP)
measurement conditions: read-out: TLR8 IC50; HEK-Blue cells overexpressing human TLR8, R848 15.9 μM stimulation, SEAP reporter
Label 1 when IC50 is strictly below 2 nM; otherwise label -1.

COc1cc(-c2[nH]c3ccc(N4CCN(CCS(C)(=O)=O)CC4)nc3c2C(C)C)cn2ncnc12 [Example 95]; -1
COc1cc(-c2[nH]c3ccc(N4CCN(CCC(C)(C)C)CC4)nc3c2C(C)C)cn2ncnc12 [Example 114]; 1
CNC1CCC(c2ccc3[nH]c(-c4cn(CCS(C)(=O)=O)c5ncccc45)c(C(C)C)c3n2)CC1 (stereo not drawn) [Example 264]; -1

Below 2 nM on IC50? Entry CC(C)c1c(-c2cn(C)c3ncccc23)[nH]c2ccc(C3CCC(NC4CCOCC4)CC3)nc12 (stereo not drawn) [Example 267] -1

Threshold test, IC50 < 2 nM: COCCN1CCN(c2ccc3[nH]c(-c4cc(OC)c5ncnn5c4)c(C(C)C)c3n2)CC1 [Example 131] 1

Hello, is IC50 of the following molecule strictly smaller than 2 nM? Cc1c(-c2[nH]c3ccc(C4CCC(N5CCC[C@@H]5CO)CC4)nc3c2C(C)C)cn2ncnc2c1C (stereo partly drawn) [Example 377] -1

Take the molecule COc1cc(-c2[nH]c3ccc(C4CCC(NCc5cnc(C)cn5)CC4)nc3c2C(C)C)cn2ncnc12 (stereo not drawn) [Example 190] and say whether its IC50 is less than 2 nM. -1

I'd appreciate it if you could check whether Cc1c(-c2[nH]c3ccc(N4CCN(S(=O)(=O)CCN(C)C)CC4)nc3c2C(C)C)cn2ncnc2c1C [Example 151] has IC50 smaller than 2 nM. 1

###

Recorded IC50, one value per entry.
measurement target: human TLR9 (Homo sapiens (Human), UniProt Q9NR96)
Sequence (Q9NR96 26-1032): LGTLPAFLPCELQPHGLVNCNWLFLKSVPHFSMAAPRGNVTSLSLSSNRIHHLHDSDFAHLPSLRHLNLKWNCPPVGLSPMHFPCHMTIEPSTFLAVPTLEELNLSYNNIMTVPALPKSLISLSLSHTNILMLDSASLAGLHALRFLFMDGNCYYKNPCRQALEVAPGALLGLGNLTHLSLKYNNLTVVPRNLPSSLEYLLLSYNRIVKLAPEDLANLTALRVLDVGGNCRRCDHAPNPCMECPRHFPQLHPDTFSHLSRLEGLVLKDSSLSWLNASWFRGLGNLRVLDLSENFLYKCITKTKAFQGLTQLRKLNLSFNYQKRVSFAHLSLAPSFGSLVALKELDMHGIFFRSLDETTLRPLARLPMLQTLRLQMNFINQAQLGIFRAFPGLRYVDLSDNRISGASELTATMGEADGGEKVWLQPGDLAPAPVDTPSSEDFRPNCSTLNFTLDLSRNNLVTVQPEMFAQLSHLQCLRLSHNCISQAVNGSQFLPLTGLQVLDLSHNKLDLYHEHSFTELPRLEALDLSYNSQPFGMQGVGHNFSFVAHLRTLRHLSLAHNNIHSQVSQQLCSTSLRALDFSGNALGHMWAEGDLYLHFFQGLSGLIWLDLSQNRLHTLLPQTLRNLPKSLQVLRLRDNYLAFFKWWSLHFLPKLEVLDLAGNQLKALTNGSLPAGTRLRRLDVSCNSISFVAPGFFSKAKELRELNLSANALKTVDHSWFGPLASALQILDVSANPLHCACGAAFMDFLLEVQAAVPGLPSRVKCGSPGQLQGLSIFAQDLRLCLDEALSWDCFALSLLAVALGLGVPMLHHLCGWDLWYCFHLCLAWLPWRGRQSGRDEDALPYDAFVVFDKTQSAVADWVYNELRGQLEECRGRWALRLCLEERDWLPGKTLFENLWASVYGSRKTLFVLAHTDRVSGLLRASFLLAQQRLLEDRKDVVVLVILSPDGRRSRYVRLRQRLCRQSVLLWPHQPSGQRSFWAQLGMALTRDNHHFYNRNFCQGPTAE
experiment summary: TLR9 inhibition reporter assay (HEK-Blue SEAP)
measurement conditions: read-out: TLR9 IC50; HEK-Blue cells overexpressing human TLR9, ODN2006 5 nM stimulation, SEAP reporter
In your response, put the unit directly after the numeric value.

CC(C)c1c(-c2cc(CO)c3ncnn3c2)[nH]c2ccc(C3CCC(N(C)C4COC4)CC3)nc12 (stereo not drawn) [Example 246]; 4.28 µM

Per the records, this compound ( `Cc1c(-c2[nH]c3ccc(N4CCC(N(C)CC5CC5)CC4)nc3c2C(C)C)cn2ncnc2c1C` ) has IC50 equal to 1.97 µM

// sample CC(C)c1c(-c2cn(CC#N)c3ncccc23)[nH]c2ccc(C3CCC(NCC(=O)N(C)C)CC3)nc12 (stereo not drawn) [Example 276] , its IC50 was 0.309 µM

Lab book: IC50 of CC(C)c1c(-c2cn(CC#N)c3ncccc23)[nH]c2ccc(C3CCC(NC4CCCOC4)CC3)nc12 (stereo not drawn) noted as 0.474 µM

Looking up CC(C)c1c(-c2cn(C)c3ncccc23)[nH]c2ccc(C3CCC(NCC4(S(C)(=O)=O)CC4)CC3)nc12 (stereo not drawn) [Example 236] , I found its IC50 recorded as 0.376 µM

The reported IC50 of the compound `COc1cc(-c2[nH]c3ccc(N4CC(NCC5(C)COC5)C4)nc3c2C(C)C)cn2ncnc12` was 22.6 µM

###

Entries and their log10 of IC50
measurement target: human TLR8 (Homo sapiens (Human), UniProt Q9NR97)
experiment summary: TLR8 inhibition reporter assay (HEK-Blue SEAP);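 note: SEAP driven by IFN-β minimal promoter carrying NF-κB and AP-1 sites, compounds dosed 0.05 nM to 50 µM for 22 h, inhibition scaled between agonist-plus-DMSO and reference-inhibitor wells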
measurement conditions: read-out: TLR8 IC50; HEK-Blue cells overexpressing human TLR8, SEAP reporter, R848 15.9 μM
Response schema: value (number) is log10 of IC50 in units of nM.

Cc1cc(-c2[nH]c3ccc(C4CNCCO4)nc3c2C(C)C)cn(C)c1=O (stereo not drawn) [Example 669]; 0.75
COc1cc(-c2[nH]c3ccc(C4CCC(N(CCS(C)(=O)=O)CCS(C)(=O)=O)C4)nc3c2C(C)C)cn2ncnc12 (stereo not drawn) [Example 726]; 3.32
COc1cc(-c2[nH]c3ccc(OC4CCN(C5CCOCC5)CC4)nc3c2C(C)C)cn2ncnc12; 0.41

Memo: `Cc1c(-c2[nH]c3ccc(C4CCN(CC(C)(C)O)CC4)nc3c2C(C)C)cn(C)c(=O)c1C` , reported log10 of IC50: 0.20

log10 of IC50 reading for Cc1c(-c2[nH]c3ccc(C4CCC(N(C)CCS(C)(=O)=O)CC4)nc3c2C(C)C)cn2ncnc2c1C (stereo not drawn) [Example 425] : -0.30

Lab book: log10 of IC50 of `Cc1cc2[nH]c(-c3cc(C)c4ncnn4c3)c(C(C)C)c2nc1C1CCN(CC(C)(C)O)CC1` noted as 1.40

The recorded log10 of IC50 for COc1cc(-c2[nH]c3ccc(C4CC(N(C)CCS(C)(=O)=O)C4)nc3c2C(C)C)cn2ncnc12 (stereo not drawn) [Example 640] is 0.69

Form: compound = Cc1c(-c2[nH]c3ccc(C4CC(N(C)C)C4)nc3c2C(C)C)cn2ncnc2c1C (stereo not drawn) [Example 618] ; log10 of IC50 = 0.66

So for `COc1cc(-c2[nH]c3ccc(OC4CCN(C)CC4)nc3c2C(C)C)cn2ncnc12` , the logged log10 of IC50 turned out to be 0.79

Data point: CCCN(CCC)C1CCC(Oc2ccc3[nH]c(-c4cc(OC)c5ncnn5c4)c(C(C)C)c3n2)CC1 (stereo not drawn) ; log10 of IC50 = 1.23

The reported value for COCCN(C1CCC(c2ccc3[nH]c(-c4cn5ncnc5c(C)c4C)c(C(C)C)c3n2)CC1)C1(CO)COC1 (stereo not drawn) [Example 499] in terms of log10 of IC50 is 2.92

Lookup result for `Cc1c(-c2[nH]c3ccc(C4CN(C(=O)CN(C)C)C4)nc3c2C(C)C)cn2ncnc2c1C` ; measured log10 of IC50: 1.26

Form: compound = COc1cc(-c2[nH]c3ccc(C4CNCCO4)nc3c2C(C)C)cn2ncnc12 (stereo not drawn) [Example 666] ; log10 of IC50 = 0.20

The compound listed as Cc1c(-c2[nH]c3ccc(C4CCC(NCC(C)(C)S(C)(=O)=O)CC4)nc3c2C(C)C)cn2ncnc2c1C (stereo not drawn) [Example 455] has a reported log10 of IC50 of 1.08

Measured log10 of IC50, `Cc1c(-c2[nH]c3ccc(N4C[C@H](C)N(CC(N)=O)[C@@H](C)C4)nc3c2C(C)C)cn2ncnc2c1C` : 1.15
